Assay notes: Cytotoxicity against human L02 cells assessed as reduction in cell viability incubated for 48 hrs by SRB assay
Format: toxicity, cell-based
Assay endpoint: IC50 at 48 h

Solved cases (4 shown):
Structure smiles string: COc1cc(=O)oc(/C=C/C=C/C=C/[C@@]2(C)C[C@]3(C)O[C@H](C)[C@](C)(O2)[C@H]3C(=O)c2cccs2)c1C
Readout value: > 50 µg/mL
//
Structure smiles string: COc1cc(=O)oc(/C=C/C=C/C=C/[C@@]2(C)C[C@]3(C)O[C@H](C)[C@](C)(O2)[C@H]3C(=O)c2ccccc2)c1C
Readout value: 30.1 µg/mL
//
Structure smiles string: COc1cccc2c1C(=O)c1c(O)c3c(c(O)c1C2=O)C[C@@](O)(C(=O)CO)C[C@@H]3O[C@H]1C[C@H](N)[C@H](O)[C@H](C)O1
Readout value: > 50 µg/mL
//
Structure smiles string: COc1cc(=O)oc(/C=C/C=C/C=C/[C@@]2(C)C[C@]3(C)O[C@H](C)[C@](C)(O2)[C@H]3C(=O)c2ccc(Cl)cc2)c1C
Readout value: > 50 µg/mL

# input for lookup
Record COc1cc(=O)oc(/C=C/C=C/C=C/[C@@]2(C)C[C@]3(C)O[C@H](C)[C@](C)(O2)[C@H]3C(=O)c2ccco2)c1C . Reported IC50 at 48 h: > 50 µg/mL

* * *

Tested on: HeLa
Assay notes: Antiproliferative activity against human HeLa cells assessed as reduction in cell viability incubated for 48 hrs by SRB assay
Assay type: functional, cell-based
Assay endpoint: IC50
Your reply should be a number followed by the unit it is expressed in.

# count of solved cases: 4
Structure smiles string: COc1cc(=O)oc(/C=C/C=C/C=C/[C@@]2(C)C[C@]3(C)O[C@H](C)[C@](C)(O2)[C@H]3C(=O)c2ccco2)c1C
IC50: 1.48 µg/mL
--
Structure smiles string: COc1cc(=O)oc(/C=C/C=C/C=C/[C@@]2(C)C[C@]3(C)O[C@H](C)[C@](C)(O2)[C@H]3C(=O)c2ccc(Cl)cc2)c1C
IC50: 1.35 µg/mL
--
Structure smiles string: COc1cc(=O)oc(/C=C/C=C/C=C/[C@@]2(C)C[C@]3(C)O[C@H](C)[C@](C)(O2)[C@H]3C(=O)c2ccccc2)c1C
IC50: 0.85 µg/mL
--
Structure smiles string: COc1cc(=O)oc(/C=C/C=C/C=C/[C@@]2(C)C[C@]3(C)O[C@H](C)[C@](C)(O2)[C@H]3C(=O)c2cccs2)c1C
IC50: 1.01 µg/mL

Continue with the compound presented below.
IC50 for COc1cccc2c1C(=O)c1c(O)c3c(c(O)c1C2=O)C[C@@](O)(C(=O)CO)C[C@@H]3O[C@H]1C[C@H](N)[C@H](O)[C@H](C)O1 is 0.051 µg/mL

* * *

Assay notes: AUC (0 to t) in Sprague-Dawley rat at 1 mg/kg, iv by LC-MS/MS analysis
Format: ADME, organism-based
Parameters: dose 1 mg/kg, route iv
Conditions used: in vivo
Assay endpoint: AUC(0-t)
Don't forget the unit after the number, please.

Structure smiles string: COc1cc(=O)oc(/C=C/C=C/C=C/[C@]2(C)O[C@]3(C)[C@@H](O)[C@@](C)(O[C@@H]3C)[C@H]2O)c1C
AUC(0-t): 203 ng·h/mL

Record COc1cc(=O)oc(/C=C/C=C/C=C/[C@@]2(C)C[C@]3(C)O[C@H](C)[C@](C)(O2)[C@H]3C(=O)c2ccc(Cl)cc2)c1C . Reported AUC(0-t): 7710 ng·h/mL

* * *

Assay notes: Volume of distribution in Sprague-Dawley rat at 1 mg/kg, iv by LC-MS/MS analysis
Format: ADME, organism-based
Conditions used: in vivo
Assay endpoint: Vd
Write the quantity with the unit trailing the number.

Structure smiles string: COc1cc(=O)oc(/C=C/C=C/C=C/[C@]2(C)O[C@]3(C)[C@@H](O)[C@@](C)(O[C@@H]3C)[C@H]2O)c1C
Readout value: 2.5 L/kg

Vd reading for COc1cc(=O)oc(/C=C/C=C/C=C/[C@@]2(C)C[C@]3(C)O[C@H](C)[C@](C)(O2)[C@H]3C(=O)c2ccc(Cl)cc2)c1C : 1.42 L/kg

* * *

# MRT inf listing for each entry below
Assay notes: MRT (0 to infinity) in Sprague-Dawley rat at 1 mg/kg, iv by LC-MS/MS analysis
Type: ADME, organism-based
Conditions used: in vivo

Structure smiles string: COc1cc(=O)oc(/C=C/C=C/C=C/[C@@]2(C)C[C@]3(C)O[C@H](C)[C@](C)(O2)[C@H]3C(=O)c2ccc(Cl)cc2)c1C
Readout value: 8.69 h

Notebook: COc1cc(=O)oc(/C=C/C=C/C=C/[C@]2(C)O[C@]3(C)[C@@H](O)[C@@](C)(O[C@@H]3C)[C@H]2O)c1C , MRT inf read as 0.35 h

* * *

Assay notes: Cytotoxicity against human HUVEC cells assessed as reduction in cell viability incubated for 48 hrs by SRB assay
Type: toxicity, cell-based
Listed here: items and their measured IC50 at 48 h.

Worked cases, IC50 at 48 h given:
Structure smiles string: COc1cc(=O)oc(/C=C/C=C/C=C/[C@@]2(C)C[C@]3(C)O[C@H](C)[C@](C)(O2)[C@H]3C(=O)c2ccco2)c1C
IC50 at 48 h: > 50 µg/mL

Structure smiles string: COc1cccc2c1C(=O)c1c(O)c3c(c(O)c1C2=O)C[C@@](O)(C(=O)CO)C[C@@H]3O[C@H]1C[C@H](N)[C@H](O)[C@H](C)O1
IC50 at 48 h: 23.3 µg/mL

Structure smiles string: COc1cc(=O)oc(/C=C/C=C/C=C/[C@@]2(C)C[C@]3(C)O[C@H](C)[C@](C)(O2)[C@H]3C(=O)c2cccs2)c1C
IC50 at 48 h: > 50 µg/mL

Structure smiles string: COc1cc(=O)oc(/C=C/C=C/C=C/[C@@]2(C)C[C@]3(C)O[C@H](C)[C@](C)(O2)[C@H]3C(=O)c2ccccc2)c1C
IC50 at 48 h: > 50 µg/mL

Lab note: measured IC50 at 48 h of COc1cc(=O)oc(/C=C/C=C/C=C/[C@@]2(C)C[C@]3(C)O[C@H](C)[C@](C)(O2)[C@H]3C(=O)c2ccc(Cl)cc2)c1C was > 50 µg/mL

* * *

Below is a list of entries, each paired with its recorded MRT last value.
Assay notes: MRT (0 to t) in Sprague-Dawley rat at 1 mg/kg, iv by LC-MS/MS analysis
Format: ADME, organism-based
Conditions used: in vivo
// units = h; emit number, no label

Structure smiles string: COc1cc(=O)oc(/C=C/C=C/C=C/[C@@]2(C)C[C@]3(C)O[C@H](C)[C@](C)(O2)[C@H]3C(=O)c2ccc(Cl)cc2)c1C
MRT last (h): 5.21

Looking up COc1cc(=O)oc(/C=C/C=C/C=C/[C@]2(C)O[C@]3(C)[C@@H](O)[C@@](C)(O[C@@H]3C)[C@H]2O)c1C , I found its MRT last recorded as 0.33

* * *

Assay notes: Tmax in Sprague-Dawley rat at 1 mg/kg, iv by LC-MS/MS analysis
Assay type: ADME, organism-based
Conditions used: in vivo
Tmax: recorded values
Note: unit min is implicit; provide only the numeric part.

Structure smiles string: COc1cc(=O)oc(/C=C/C=C/C=C/[C@]2(C)O[C@]3(C)[C@@H](O)[C@@](C)(O[C@@H]3C)[C@H]2O)c1C
Tmax, min: 6

Attention now shifts to the item below.
Record summary for COc1cc(=O)oc(/C=C/C=C/C=C/[C@@]2(C)C[C@]3(C)O[C@H](C)[C@](C)(O2)[C@H]3C(=O)c2ccc(Cl)cc2)c1C : reported Tmax = 7.2

* * *

Assay notes: Clearance in Sprague-Dawley rat at 1 mg/kg, iv by LC-MS/MS analysis
Assay type: ADME, organism-based
Conditions used: in vivo
// values below are reported clearance

Structure smiles string: COc1cc(=O)oc(/C=C/C=C/C=C/[C@]2(C)O[C@]3(C)[C@@H](O)[C@@](C)(O[C@@H]3C)[C@H]2O)c1C
clearance: 83.2 mL/min/kg

As a next step, examine the molecule that follows.
molecule COc1cc(=O)oc(/C=C/C=C/C=C/[C@@]2(C)C[C@]3(C)O[C@H](C)[C@](C)(O2)[C@H]3C(=O)c2ccc(Cl)cc2)c1C , clearance observed: 2 mL/min/kg

* * *

Assay notes: AUC (0 to infinity) in Sprague-Dawley rat at 1 mg/kg, iv by LC-MS/MS analysis
Type: ADME, organism-based
Parameters: time infinity, dose 1 mg/kg, route iv
Conditions used: in vivo
Assay endpoint: AUC(0-inf) (ng·h/mL)
Provide only the numeric value, understood in ng·h/mL.

Structure smiles string: COc1cc(=O)oc(/C=C/C=C/C=C/[C@]2(C)O[C@]3(C)[C@@H](O)[C@@](C)(O[C@@H]3C)[C@H]2O)c1C
Readout value: 206

From here, focus on the item given below.
Value of AUC(0-inf) reported for the compound COc1cc(=O)oc(/C=C/C=C/C=C/[C@@]2(C)C[C@]3(C)O[C@H](C)[C@](C)(O2)[C@H]3C(=O)c2ccc(Cl)cc2)c1C is 8640
